What IC50 was measured for each of the following?
# system_under_test: Mannose-6-phosphate isomerase (Homo sapiens)
# Sequence (P34949 whole entry): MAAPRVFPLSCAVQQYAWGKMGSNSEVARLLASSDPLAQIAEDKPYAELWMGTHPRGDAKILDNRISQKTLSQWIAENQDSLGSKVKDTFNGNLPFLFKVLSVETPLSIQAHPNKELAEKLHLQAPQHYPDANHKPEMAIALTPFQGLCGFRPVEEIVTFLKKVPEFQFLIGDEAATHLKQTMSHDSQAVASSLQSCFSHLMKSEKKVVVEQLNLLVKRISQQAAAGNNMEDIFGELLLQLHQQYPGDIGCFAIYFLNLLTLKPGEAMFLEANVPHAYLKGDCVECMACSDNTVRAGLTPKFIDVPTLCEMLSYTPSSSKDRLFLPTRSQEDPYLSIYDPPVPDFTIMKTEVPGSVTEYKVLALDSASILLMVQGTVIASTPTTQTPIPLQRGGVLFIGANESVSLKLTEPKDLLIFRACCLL
# test_protocol: MPI inhibition at elevated mannose 6-phosphate – biochemical, fluorescence intensity, high mannose 6-phosphate, primary screen (AID 1220)
Active and inactive are the calls of the source. Rule as the data show it: actives have a measured IC50 and inactives only a lower limit.

// query Let me know recorded IC50 for "CC1=C/C(=N\OS(=O)(=O)c2ccccc2)C(C(C)C)=CC1=O" , thanks.
// result 6.04 µM (active)

// query Give the reported IC50 for this molecule. "CCOC(=O)N1CCN(c2cc(NCCO)c([N+](=O)[O-])c3nonc23)CC1"
// result > 50 µM (not active)

// query # return recorded IC50 for entry "CCOc1ccc(CNc2ccc(N3CCCC3)cc2)cc1"
// result > 50 µM (not active)

// query Provide only the value of recorded IC50 for "O=C(CNc1ccc2ccccc2c1)N/N=C/c1ccc(C(=O)O)cc1"
// result > 50 µM (not active)

src = ChEMBL document CHEMBL1201862
